# System: LOX IMVI melanoma
# Assay Method Text: NCI tumour cell line growth inhibition, 48 h
Please go through the items and note down their TGI.

Compound | TGI
O=C(/C=C/c1ccncc1)c1cc(Cl)ccc1O | 29.2 µM

Below are 3 compounds. Give each one its TGI.
1. O=C(Nc1ccc(Cl)cc1)c1cccc(NC2=C(Cl)C(=O)N(Cc3ccccc3)C2=O)c1
2. CCCSCC(P(=O)(O)O)P(=O)(O)O
3. CCOC(=O)c1cc2nc3ccccc3c(=O)n2c2ccccc12

Out:
1: 23.2 µM; 2: > 100 µM; 3: > 10 µM

Below are 8 compounds. Give each one its TGI.
1. CCN1c2ccccc2C(C(SC)S(=O)(=O)c2ccc(C)cc2)c2c1[nH]c(=O)n(C)c2=O (stereo not given)
2. C=CCSc1nnc2cc(CN3CCCC3)c(-c3ccc(Cl)cc3)nn12
3. O=C(Nc1nccs1)c1c(O)nc2sccn2c1=O
4. Nc1ncnc2c1nnn2C1OC(CO)C(O)C1O (stereo not given)
5. CC(=O)OC1COC(n2ccc3cc(Br)c([N+](=O)[O-])cc32)C(OC(C)=O)C1OC(C)=O (stereo not given)
6. COc1cc2c3c(n(C)c(=O)c2cc1OC)-c1cc2c(cc1/C3=C\CCCN)OCO2
7. CC[C@H](Nc1ncnc2nc[nH]c12)c1oc2ccccc2c(=O)c1-c1cccc(F)c1
8. COC(=O)C1CCC(=O)N1C(c1ccc(OC)cc1)c1ccc2c(c1)OCO2 (stereo not given)

Out:
1: > 100 µM; 2: 48.1 µM; 3: > 10 µM; 4: 3.77 µM; 5: 40.7 µM; 6: 2.52 µM; 7: > 100 µM; 8: > 100 µM

Below are 7 compounds. Give each one its TGI.
1. CCCCCCN(CCCCCC)C(=O)Cc1c2n(c3ccccc13)Cc1ccccc1-2
2. CSc1nc(NC2OCC(OC(C)=O)C(OC(C)=O)C2OC(C)=O)c(N=CC=Nc2c(NC3OCC(OC(C)=O)C(OC(C)=O)C3OC(C)=O)nc(SC)[nH]c2=O)c(=O)[nH]1 (stereo not given)
3. CN(C)c1ccc(S(=O)Nc2ccccc2)cc1 (stereo not given)
4. CC1=NS(=O)(=O)c2ccccc2N1
5. CCOC(=O)CC(=O)ON(C)C(C)=O
6. C[C@@H]1CCC2[C@@H](C)[C@@H](OCC(CO[C@H]3OC4O[C@@]5(C)CC[C@H]6[C@H](C)CCC([C@H]3C)[C@@]46OO5)OC(=O)CCC(=O)O)OC3O[C@@]4(C)CC[C@@H]1[C@]32OO4 (stereo not given in full)
7. CC1=NN(c2cccc(Cl)c2)C2(SCC(=O)N2c2nc3ccccc3s2)/C1=C\c1ccccc1O (stereo not given)

Out:
["> 100 µM", "> 100 µM", "> 100 µM", "> 100 µM", "> 100 µM", "> 100 µM", "> 100 µM"]

The compound listed as CC(=O)Nc1nc(C#N)[nH]c1C#N has a reported TGI of > 100 µM

----------
# System: SK-OV-3 ovarian
# Assay Method Text: NCI tumour cell line growth inhibition, 48 h; in the data active = GI50 below about 0.43 µM; inactive = the rest
Answer with one of the outcomes given here: label 1 for active, label 0 for inactive

Some entries whose results are on file:
Compound | Group
ClCc1cccc(Cn2cnc3ncnc(Cl)c32)c1 | label 0
COc1cc2c3c(n(C)c(=O)c2cc1OC)-c1cc2c(cc1/C3=C\CCCN)OCO2 | label 0

In: Please let me know the test result on file for O=C1OC(O)[C@@H]2[C@H]1[C@H]1CC[C@@H]2O1 (some centres undefined) .
Out: label 0

In: Please let me know the test result on file for COc1ccc([C@H]2[C@@H](F)C(=O)N2c2cc(OC)c(OC)c(OC)c2)cc1F .
Out: label 0
